Cited source: patent US20080262056A1

Observed MIC90, system E. faecalis MGH-2 EF 1-1.
All answers are understood in µg/mL, so give the number only.

Prompt line: Can you share its MIC90? I mean this compound: CC(=O)NC[C@H]1CN(c2cc(F)c3c(c2)CC(=O)N3C(C)C)C(=O)O1
Response line: 2

Prompt line: Here is the next compound: CCC(=O)NC[C@H]1CN(c2ccc3c(c2)CC(=O)N3CC)C(=O)O1
Response line: 2

Prompt line: And CC(=O)NC[C@H]1CN(c2cc(F)c3c(c2)CC(=O)N3C2CC2)C(=O)O1 ?
Response line: 4

Prompt line: Moving on to CC(=O)NC[C@H]1CN(c2ccc3c(c2)CC(=O)N3C2CC2)C(=O)O1
Response line: 4

Prompt line: Now this one: CCC(=O)NC[C@H]1CN(c2ccc3c(c2)CC(=O)N3C(C)C)C(=O)O1
Response line: 8

Prompt line: Could you do the same for CCCN1C(=O)Cc2cc(N3C[C@H](CNC(=O)CC)OC3=O)cc(F)c21 , please?
Response line: 8

Prompt line: Same thing, different compound: CCC(=O)NC[C@H]1CN(c2ccc3c(c2)CC(=O)N3CCF)C(=O)O1
Response line: 2

Prompt line: One more compound: CC(=O)NC[C@H]1CN(c2ccc3c(c2)CC(=O)N3C(C)C)C(=O)O1
Response line: 4

Prompt line: // next record CC(=O)NC[C@H]1CN(c2cc(F)c3c(c2)CC(=O)N3CC2CC2)C(=O)O1
Response line: 2

Prompt line: Here is the next compound: CCN1C(=O)Cc2cc(N3C[C@H](CNC(C)=O)OC3=O)ccc21
Response line: 8
